# reported IC50; entries follow
# tgt: Human GlyT1c (Homo sapiens)
# protocol-text: Glycine uptake in recombinant hGlyT1 expressing cells
# particulars: hGlyT1c_5_CHO cells; [3H]-glycine uptake, 60-120 min
Counter-ions that a name gives are not always drawn.

compound: Cc1cc(NCc2ccc(Cl)c(Cl)c2)c2cccc(NS(=O)(=O)c3ccccc3)c2n1 [Example 8]
IC50: ≤ 10 µM
//
compound: Cc1cc(NCc2ccc(Cl)c(Cl)c2)c2cccc(OCCNS(=O)(=O)Cc3ccccc3)c2n1 [Example 32]
IC50: ≤ 1 µM
//
compound: Cc1cc(NCc2ccc(Cl)c(Cl)c2)c2cccc(OCCN)c2n1 [Example 20, dihydrochloride]
IC50: ≤ 1 µM
//
compound: COc1cccc2c(NC(CN)c3ccccc3)cc(C)nc12 (stereo not drawn) [Example 75]
IC50: ≤ 1 µM
//
compound: CSc1cccc2c(NCc3ccc(Cl)cc3)cc(C)nc12 [Example 83]
IC50: ≤ 1 µM
//
compound: CNc1cccc2c(NCc3ccc(Cl)c(Cl)c3)cc(C)nc12 [Example 15]
IC50: ≤ 1 µM
//
compound: Cc1cc(NCc2ccc(F)cc2)c2ccccc2n1 [Example 90]
IC50: ≤ 1 µM
//
compound: Cc1cc(NCc2ccc(Cl)c(Cl)c2)c2cccc(S(N)(=O)=O)c2n1 [Example 2]
IC50: ≤ 1000 µM

Now consider a different compound.
Documented IC50 of Cc1cc(NCc2ccc(Cl)c(Cl)c2)c2cccc(OCC(C)C)c2n1 [Example 51] : ≤ 1 µM

----------
# tgt: Human GlyT1c (Homo sapiens, UniProt P48067)
# Construct: expressed in transfected cells; host or cells: CHO (hGlyT1c_5_CHO clone)
# Sequence (P48067 1-706): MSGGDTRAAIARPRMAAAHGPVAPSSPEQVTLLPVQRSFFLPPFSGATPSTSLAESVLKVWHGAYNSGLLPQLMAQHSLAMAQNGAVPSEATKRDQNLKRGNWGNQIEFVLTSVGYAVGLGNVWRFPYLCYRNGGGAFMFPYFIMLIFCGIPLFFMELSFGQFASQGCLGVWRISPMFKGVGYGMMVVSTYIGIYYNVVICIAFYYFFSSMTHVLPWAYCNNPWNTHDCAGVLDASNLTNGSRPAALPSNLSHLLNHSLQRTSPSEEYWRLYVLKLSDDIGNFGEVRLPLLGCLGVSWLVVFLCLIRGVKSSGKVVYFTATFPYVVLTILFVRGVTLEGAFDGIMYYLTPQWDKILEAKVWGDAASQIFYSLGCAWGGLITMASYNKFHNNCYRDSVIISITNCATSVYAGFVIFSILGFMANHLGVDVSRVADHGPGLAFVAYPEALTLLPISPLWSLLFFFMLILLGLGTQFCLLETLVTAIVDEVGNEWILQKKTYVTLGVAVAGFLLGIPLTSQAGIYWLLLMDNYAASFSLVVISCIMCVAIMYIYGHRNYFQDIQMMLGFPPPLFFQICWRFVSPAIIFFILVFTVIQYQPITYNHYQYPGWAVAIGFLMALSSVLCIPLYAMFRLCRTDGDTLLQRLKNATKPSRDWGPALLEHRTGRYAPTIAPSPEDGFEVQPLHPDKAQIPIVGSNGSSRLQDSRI
# protocol-text: Glycine uptake in recombinant hGlyT1 expressing cells
# Assay type: cell-based
# particulars: hGlyT1c_5_CHO cells; [3H]-glycine uptake, 60-120 min
Where a name gives a salt, the structure may show the parent alone.
measure: IC50

Field: example entries. Status: answers known.
molecule: Cc1cc(NCc2ccc(Cl)c(Cl)c2)c2cccc(N(C)C)c2n1 [Example 16, hydrochloride]
observed-result: ≤ 1 µM
//
molecule: Cc1cc(NCc2ccc(Cl)c(Cl)c2)c2cccc(N3CCCC3)c2n1 [Example 7, hydrochloride]
observed-result: ≤ 1 µM

Now consider a different molecule.
Documented IC50 of CCS(=O)(=O)NCCOc1cccc2c(NCc3ccc(Cl)c(Cl)c3)cc(C)nc12 [Example 27] : ≤ 0.01 µM

----------
# tgt: human GlyT1c transporter (Homo sapiens)
# protocol-text: [3H]-(R)-NPTS radioligand binding assay using recombinant hGlyT1 expressing cell membranes
# particulars: 0.5 nM [3H]-(R)-NPTS, apparent Ki via Cheng-Prusoff, read-out: [3H]-(R)-NPTS bindung Ki
pKi: −log10 of the molar value.
measure: pKi

Field: example entries. Status: answers known.
molecule: COc1cccc2c(NC(c3ccccc3)c3ccc(Cl)cc3)cc(C)nc12 (stereo not drawn) [Example 64]
pKi: ≥ 5.00

molecule: CSc1cccc2c(NCc3ccc(F)c(F)c3)cc(C)nc12 [Example 86]
pKi: ≥ 6.00

molecule: Cc1cc(NCc2ccc(Cl)c(Cl)c2)c2cccc(O)c2n1 [Example 41]
pKi: ≥ 7.00

molecule: Cc1cc(NCc2ccc(Cl)c(Cl)c2)c2cccc(S(=O)(=O)NC(C)C)c2n1 [Example 3]
pKi: ≥ 6.00

molecule: COc1cccc2c(N[C@@H](C)c3ccc(Cl)cc3)cc(C)nc12 [Example 57]
pKi: ≥ 5.00

Now consider a different molecule.
pKi value, target or system human GlyT1c transporter (Homo sapiens), for Cc1cc(NCc2ccc(Cl)c(Cl)c2)c2cccc(OCC(C)C)c2n1 [Example 51] : ≥ 6.00

----------
# tgt: human GlyT1c transporter (Homo sapiens)
# Construct: expressed in transfected cells; host or cells: recombinant hGlyT1-expressing cells
# Sequence (P48067 1-706): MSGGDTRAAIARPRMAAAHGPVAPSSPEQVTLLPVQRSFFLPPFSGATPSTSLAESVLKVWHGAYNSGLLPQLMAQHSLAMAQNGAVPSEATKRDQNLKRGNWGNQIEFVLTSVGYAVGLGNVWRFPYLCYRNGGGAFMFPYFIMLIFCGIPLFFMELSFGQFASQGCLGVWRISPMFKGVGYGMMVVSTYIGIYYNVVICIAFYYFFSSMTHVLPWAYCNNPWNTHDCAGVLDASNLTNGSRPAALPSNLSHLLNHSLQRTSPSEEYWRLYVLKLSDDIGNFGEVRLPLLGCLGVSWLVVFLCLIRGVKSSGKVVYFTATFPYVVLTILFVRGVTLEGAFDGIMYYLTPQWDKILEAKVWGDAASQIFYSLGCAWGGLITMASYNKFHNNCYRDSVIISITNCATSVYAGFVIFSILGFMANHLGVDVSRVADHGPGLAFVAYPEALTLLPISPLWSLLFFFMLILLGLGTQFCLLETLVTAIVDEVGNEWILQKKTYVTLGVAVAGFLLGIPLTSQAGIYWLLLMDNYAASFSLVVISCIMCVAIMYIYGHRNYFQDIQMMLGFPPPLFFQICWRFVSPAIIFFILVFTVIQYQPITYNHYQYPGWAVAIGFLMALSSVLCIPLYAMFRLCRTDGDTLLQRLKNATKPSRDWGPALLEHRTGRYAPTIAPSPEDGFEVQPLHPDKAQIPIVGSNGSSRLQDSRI
# protocol-text: [3H]-(R)-NPTS radioligand binding assay using recombinant hGlyT1 expressing cell membranes
# particulars: 0.5 nM [3H]-(R)-NPTS, apparent Ki via Cheng-Prusoff, read-out: [3H]-(R)-NPTS bindung Ki
pKi: −log10 of the molar value. Where a name gives a salt, the structure may show the parent alone.
measure: pKi

Field: example entries. Status: answers known.
compound: Cc1cc(NCc2ccc(F)c(F)c2)c2cccc(C)c2n1
pKi: ≥ 6.00
//
compound: Cc1cc(NCc2ccc(Cl)c(Cl)c2)c2cccc(OCCN3CCOCC3)c2n1 [Example 48, dihydrochloride]
pKi: ≥ 7.00
//
compound: Cc1cc(NCc2ccc(Cl)c(Cl)c2)c2cccc(N3CCCC3)c2n1 [Example 7, hydrochloride]
pKi: ≥ 6.00
//
compound: Cc1cc(NCc2ccc(Cl)cc2Cl)c2cccc(OCCNS(C)(=O)=O)c2n1
pKi: ≥ 7.00
//
compound: Cc1cc(NCc2ccc(Cl)c(Cl)c2)c2cccc(OCc3ccccc3)c2n1
pKi: ≥ 7.00

Documented pKi of COc1cccc2c(NC(CN)c3ccccc3)cc(C)nc12 (stereo not drawn) : ≥ 6.00

Documented pKi of Cc1cc(NCc2ccc(Cl)cc2Cl)c2cccc(OCCNS(=O)(=O)CC(C)C)c2n1 : ≥ 7.00

Documented pKi of COc1cccc2c(NC(CN3CCCC3)c3ccc(Cl)cc3)cc(C)nc12 (stereo not drawn) : ≥ 6.00

Documented pKi of Cc1cc(NCc2ccc(F)cc2)c2ccccc2n1 : ≥ 6.00

----------
# reported pIC50; entries follow
# tgt: Human GlyT1c (Homo sapiens, UniProt P48067)
# protocol-text: Glycine uptake in recombinant hGlyT1 expressing cells
# particulars: hGlyT1c_5_CHO cells; [3H]-glycine uptake, 60-120 min
pIC50: −log10 of the molar value. Structures can show the parent of a compound that is named as a salt.

compound: COc1cccc2c(NC(CNCc3ccccc3)c3ccccc3)cc(C)nc12 (centres unmarked)
measure: pIC50
observed-result: ≥ 5.00

compound: Cc1cc(NCc2ccc(Cl)c(Cl)c2)c2cccc(OCCNC(=O)c3ccccc3)c2n1
measure: pIC50
observed-result: ≥ 7.00

compound: Cc1cc(NCc2ccc(Cl)c(Cl)c2)c2cccc([S+](C)[O-])c2n1 (centres unmarked)
measure: pIC50
observed-result: ≥ 6.00

compound: COc1cccc2c(N[C@@H](CN(C)C)c3ccc(Cl)cc3)cc(C)nc12
measure: pIC50
observed-result: ≥ 5.00

compound: Cc1cc(N[C@@H](c2ccccc2)[C@@H]2CCCCN2)c2cccc(OCCNS(C)(=O)=O)c2n1 [Example 37, dihydrochloride]
measure: pIC50
observed-result: ≥ 6.00

Documented pIC50 of COc1cccc2c(NC(CNC(C)C)c3ccccc3)cc(C)nc12 (centres unmarked) : ≥ 5.00

Documented pIC50 of COc1cccc2c(NCc3ccc(C(F)(F)F)c(Cl)c3)cc(C)nc12 : ≥ 6.00

Documented pIC50 of CC(=O)NCCOc1cccc2c(NCc3ccc(Cl)c(Cl)c3)cc(C)nc12 : ≥ 6.00

Documented pIC50 of COc1cccc2c(NC(C(N)=O)c3ccccc3)cc(C)nc12 (centres unmarked) : ≥ 3.00

Documented pIC50 of Cc1cc(NCc2ccc(Cl)c(Cl)c2)c2cccc(N)c2n1 : ≥ 7.00
